Entry source: ChEMBL document CHEMBL1150994

Tested on: Monoclonal antibody (mAb) 3E7
experiment_description: Affinity towards anti-beta-endorphin MAb(Clone 3-E7) using [3H][Leu5]-enkephalin as labeled ligand at 10 uM concentration; not active
The source made the active and inactive calls. The rule behind the calls is not given here. Where a SMILES comes first, the peptide text is derived from it.
recorded_metric: Activity

molecule: C[C@H](NC(=O)CNC(=O)[C@@H](N)Cc1ccc(O)cc1)C(=O)N[C@@H](Cc1ccccc1)C(=O)N[C@H](C(=O)O)[C@@H](C)O (H-YGAFT-OH)
target_or_test_system: Monoclonal antibody (mAb) 3E7
Activity: inactive

molecule: NCCCC[C@H](NC(=O)[C@@H](N)Cc1ccc(O)cc1)C(=O)NCC(=O)NCC(=O)N[C@@H](Cc1ccccc1)C(=O)O (H-YKGGF-OH)
target_or_test_system: Monoclonal antibody (mAb) 3E7
Activity: inactive

molecule: CC(C)C[C@H](NC(=O)[C@H](C)NC(=O)CNC(=O)[C@@H](N)Cc1ccc(O)cc1)C(=O)N[C@H](C(=O)O)[C@@H](C)O (H-YGALT-OH)
target_or_test_system: Monoclonal antibody (mAb) 3E7
Activity: inactive

molecule: NC(=O)C[C@H](NC(=O)[C@H](Cc1ccccc1)NC(=O)[C@H](Cc1c[nH]c2ccccc12)NC(=O)CNC(=O)[C@@H](N)Cc1ccc(O)cc1)C(=O)O (H-YGWFN-OH)
target_or_test_system: Monoclonal antibody (mAb) 3E7
Activity: inactive

Under Monoclonal antibody (mAb) 3E7: Activity value of CC[C@H](C)[C@H](NC(=O)[C@H](Cc1ccccc1)NC(=O)[C@@H](NC(=O)CNC(=O)[C@@H](N)Cc1ccc(O)cc1)C(C)C)C(=O)O (H-YGVFI-OH) ?
inactive

====

Tested on: Monoclonal antibody (mAb) 3E7
experiment_description: Affinity towards anti-beta-endorphin MAb(Clone 3-E7) using [3H][Leu5]-enkephalin as labeled ligand
Where a SMILES comes first, the peptide text is derived from it. [ ]: non-standard residue; d: D form. βAla = NCCC(=O)O
recorded_metric: pIC50
Lab note: report pIC50 as minus log10 of the concentration in molar units, number only.

Consider the reported pIC50 for these molecules:
molecule: CC(C)C[C@H](NC(=O)[C@H](C)NC(=O)CNC(=O)[C@@H](N)Cc1ccc(O)cc1)C(=O)N[C@@H](CCC(N)=O)C(=O)NCCC(N)=O (H-YGALQ[βAla]-NH2)
target_or_test_system: Monoclonal antibody (mAb) 3E7
pIC50: 5.54
--
molecule: NC(=O)CCNC(=O)[C@H](CCC(N)=O)NC(=O)[C@H](Cc1ccccc1)NC(=O)CNC(=O)CNC(=O)[C@@H](N)Cc1ccccc1 (H-FGGFQ[βAla]-NH2)
target_or_test_system: Monoclonal antibody (mAb) 3E7
pIC50: 7.34

Under Monoclonal antibody (mAb) 3E7: pIC50 value of CC(C)C[C@H](NC(=O)[C@H](Cc1ccccc1)NC(=O)CNC(=O)CNC(=O)[C@@H](N)Cc1ccc(O)cc1)C(=O)N[C@@H](C)C(=O)O (H-YGGFLA-OH) ?
7.77

And the next one, NC(=O)CC[C@H](NC(=O)[C@H](Cc1ccccc1)NC(=O)CNC(=O)CNC(=O)[C@@H](N)Cc1ccccc1)C(=O)NCCC(=O)O (H-FGGFQ[βAla]-OH) ?
7.40

And the next one, CC(C)C[C@H](NC(=O)[C@H](C)NC(=O)CNC(=O)[C@@H](N)Cc1ccc(O)cc1)C(=O)N[C@@H](CCC(N)=O)C(=O)O (H-YGALQ-OH) ?
5.70

And the next one, C[C@H](NC(=O)[C@H](Cc1ccccc1)NC(=O)CNC(=O)CNC(=O)[C@@H](N)Cc1ccc(O)cc1)C(N)=O (H-YGGFA-NH2) ?
7.14

And the next one, CC(C)C[C@H](NC(=O)CNC(=O)CNC(=O)[C@@H](N)Cc1ccc(O)cc1)C(=O)N[C@@H](CO)C(=O)NCCC(N)=O (H-YGGLS[βAla]-NH2) ?
5.94

And the next one, C[C@@H](O)[C@H](NC(=O)[C@H](Cc1ccccc1)NC(=O)CNC(=O)CNC(=O)[C@@H](N)Cc1ccc(O)cc1)C(=O)O (H-YGGFT-OH) ?
7.43

And the next one, C[C@@H](O)[C@H](NC(=O)[C@H](Cc1ccccc1)NC(=O)CNC(=O)CNC(=O)[C@@H](N)Cc1ccc(O)cc1)C(=O)NCCC(=O)O (H-YGGFT[βAla]-OH) ?
7.30

And the next one, CSCC[C@H](NC(=O)CNC(=O)CNC(=O)[C@@H](N)Cc1ccc(O)cc1)C(=O)N[C@H](C(=O)NCCC(N)=O)C(C)C (H-YGGMV[βAla]-NH2) ?
5.15

And the next one, CC(C)C[C@H](NC(=O)[C@H](Cc1ccccc1)NC(=O)CNC(=O)CNC(=O)[C@@H](N)Cc1ccc(O)cc1)C(=O)N[C@@H](C)C(N)=O (H-YGGFLA-NH2) ?
7.86

And the next one, CSCC[C@H](NC(=O)CNC(=O)CNC(=O)[C@@H](N)Cc1ccc(O)cc1)C(=O)N[C@H](C(=O)NCCC(=O)O)C(C)C (H-YGGMV[βAla]-OH) ?
5.29

And the next one, C[C@@H](O)[C@H](NC(=O)[C@H](Cc1ccccc1)NC(=O)CNC(=O)CNC(=O)[C@@H](N)Cc1ccc(O)cc1)C(=O)NCCC(N)=O (H-YGGFT[βAla]-NH2) ?
7.36

And the next one, C[C@H](NC(=O)[C@H](Cc1ccccc1)NC(=O)CNC(=O)CNC(=O)[C@@H](N)Cc1ccc(O)cc1)C(=O)NCCC(=O)O (H-YGGFA[βAla]-OH) ?
7.08

And the next one, CC(C)C[C@H](NC(=O)[C@H](C)NC(=O)CNC(=O)[C@@H](N)Cc1ccc(O)cc1)C(=O)N[C@@H](CCC(N)=O)C(=O)NCCC(=O)O (H-YGALQ[βAla]-OH) ?
5.83

And the next one, C[C@@H](O)[C@H](NC(=O)[C@H](Cc1ccccc1)NC(=O)CNC(=O)CNC(=O)[C@@H](N)Cc1ccc(O)cc1)C(N)=O (H-YGGFT-NH2) ?
7.19
